B1: Twister Ribozyme (parent)
chain: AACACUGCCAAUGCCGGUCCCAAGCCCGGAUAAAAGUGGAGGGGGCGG

Variants of: B1
assay: self-cleavage, relative activity (ratio to wild type); higher = more cleavage; co-transcriptional
Label 1 when self-cleavage is at or above 0.7; otherwise label -1.

* U6A G24U | -1
* G29A U31C | 1
* C8U A10G | -1
* G7U C15A | -1
* C19A C20G | -1
* C15G G36A | -1
* U6G C21U | -1
* A11G G48U | 1
* A2G C21G | -1
* C8A C25G | -1
* A11U G29A | 1
* C3U G44U | -1
* U12C U18A | -1
* C5G | 1
* U6G G42C | -1
* A1U C19G | -1
* G13A A40C | -1
* U31C U37A | 1
* A2G A10C | -1
* A32U C46A | 1
